# Test Target: NK1R (Cavia porcellus, UniProt P30547)
# Construct: The longitudinal muscle with myenteric plexus (LMMP) was carefully separated from the circular muscle; from tissue; host or cells: guinea pig ileum longitudinal muscle with myenteric plexus
# Sequence (P30547 whole entry): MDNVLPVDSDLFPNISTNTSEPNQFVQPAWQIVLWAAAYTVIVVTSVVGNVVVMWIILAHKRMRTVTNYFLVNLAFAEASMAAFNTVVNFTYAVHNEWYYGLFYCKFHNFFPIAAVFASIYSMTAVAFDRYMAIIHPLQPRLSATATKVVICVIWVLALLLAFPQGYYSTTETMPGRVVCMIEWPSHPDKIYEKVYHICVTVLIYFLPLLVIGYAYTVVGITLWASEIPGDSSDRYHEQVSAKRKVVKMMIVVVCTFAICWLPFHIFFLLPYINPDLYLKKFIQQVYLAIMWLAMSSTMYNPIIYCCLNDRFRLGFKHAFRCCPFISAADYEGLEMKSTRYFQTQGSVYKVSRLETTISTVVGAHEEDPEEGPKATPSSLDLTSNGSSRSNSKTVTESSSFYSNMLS
# Assay Method Text: GPI/LMMP functional assay at NK1R (agonist and antagonist testing)
# Type: cell-based, guinea pig
# Experimental Conditions: agonist activity at the concentration in the cell
Non-standard residues stand in square brackets, D forms with d. Residues, ends and D or L forms follow the SMILES beside them. *: point of attachment. NH(3,5-(CF3)2-benzyl) = FC(F)(F)c1cc(CN*)cc(C(F)(F)F)c1; NMePhe(4-F) = CN[C@@H](Cc1ccc(F)cc1)C(=O)O; Dmt = Cc1cc(O)cc(C)c1C[C@H](N)C(=O)O; NMeF = CN[C@@H](Cc1ccccc1)C(=O)O
Endpoint Name: GPI/LMMP (NK1R) Agonist

Worked examples follow.
Molecule	Endpoint Name	Recorded Result
CC(C)C[C@H](NC(=O)[C@@H]1CCCN1C(=O)[C@@H](CO)NC(=O)[C@H](Cc1ccccc1)NC(=O)CNC(=O)[C@@H](C)NC(=O)[C@@H](N)Cc1ccc(O)cc1)C(=O)N[C@@H](Cc1c[nH]c2ccccc12)C(=O)NCc1cc(C(F)(F)F)cc(C(F)(F)F)c1	GPI/LMMP (NK1R) Agonist	None at 100 nM
Cc1cc(O)cc(C)c1C[C@H](N)C(=O)N[C@H](C)C(=O)NCC(=O)N[C@@H](Cc1ccc(F)cc1)C(=O)N1CCC[C@H]1C(=O)N[C@@H](CC(C)C)C(=O)N[C@@H](Cc1c[nH]c2ccccc12)C(=O)NCc1cc(C(F)(F)F)cc(C(F)(F)F)c1	GPI/LMMP (NK1R) Agonist	None at 30 nM
Cc1cc(O)cc(C)c1C[C@H](N)C(=O)N[C@H](C)C(=O)NCC(=O)N(C)[C@@H](Cc1ccccc1)C(=O)N[C@@H](CO)C(=O)N1CCC[C@H]1C(=O)N[C@@H](CC(C)C)C(=O)N[C@@H](Cc1c[nH]c2ccccc12)C(=O)NCc1cc(C(F)(F)F)cc(C(F)(F)F)c1 [AKG132] (H-[Dmt][dA]G[NMeF]SPLW-{NH(3,5-(CF3)2-benzyl)})	GPI/LMMP (NK1R) Agonist	None at 30 nM
CC(C)C[C@H](NC(=O)[C@@H]1CCCN1C(=O)CNC(=O)[C@H](Cc1ccc(F)cc1)N(C)C(=O)CNC(=O)[C@@H](C)NC(=O)[C@@H](N)Cc1ccc(O)cc1)C(=O)N[C@@H](Cc1c[nH]c2ccccc12)C(=O)NCc1cc(C(F)(F)F)cc(C(F)(F)F)c1 [AKG131] (H-Y[dA]G[NMePhe(4-F)]GPLW-{NH(3,5-(CF3)2-benzyl)})	GPI/LMMP (NK1R) Agonist	None at 100 nM

// batch mode: one GPI/LMMP (NK1R) Agonist value per listed entry
1. CC(C)C[C@H](NC(=O)[C@@H]1CCCN1C(=O)[C@H](CO)NC(=O)[C@H](Cc1ccccc1)N(C)C(=O)CNC(=O)[C@@H](C)NC(=O)[C@@H](N)Cc1ccc(O)cc1)C(=O)N[C@@H](Cc1c[nH]c2ccccc12)C(=O)NCc1cc(C(F)(F)F)cc(C(F)(F)F)c1 [AKG126] (H-Y[dA]G[NMeF]SPLW-{NH(3,5-(CF3)2-benzyl)})
2. Cc1cc(O)cc(C)c1C[C@H](N)C(=O)N[C@H](C)C(=O)NCC(=O)N(C)[C@@H](Cc1ccc(F)cc1)C(=O)N[C@@H](CO)C(=O)N1CCC[C@H]1C(=O)N[C@@H](CC(C)C)C(=O)N[C@@H](Cc1c[nH]c2ccccc12)C(=O)NCc1cc(C(F)(F)F)cc(C(F)(F)F)c1 [AKG135] (H-[Dmt][dA]G[NMePhe(4-F)]SPLW-{NH(3,5-(CF3)2-benzyl)}; N-terminus assumed)

# output
None at 30 nM
None at 100 nM

Each recorded value in this set is attributed to patent US11141452B2.
